Reported Max. Activity (fold over background) by item:
# Assay target: Vg9/Vd1 T cell receptor expressed on SKW3 cells (UniProt Q99603)
# Sequence (Q99603 21-122): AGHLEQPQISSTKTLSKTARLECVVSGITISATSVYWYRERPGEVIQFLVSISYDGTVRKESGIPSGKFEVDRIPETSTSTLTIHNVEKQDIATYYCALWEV
# Method summary: flow cytometry, dose-response binding at 37 C, SKW3 cells expressing Vg9/Vd1
Keep it simple and answer with nothing but the number.

# Binder, Max. Activity (fold over background)
rows = [
    ("VG9B87 (antibody, human IgG1, kappa, V domains shown) VH: QVQLVESGAEVKKPGASVKVSCKASGYTFTSEYIHWVRQAPGQGLEWMGIINPSGGSTSYAQRFQGRVTMTRDTSTSTVYMEVNSLRSEDTAVYYCARERGYSYGSFDYWGQGTLVTVSS VL: EIVLTQSPSFLSASAGDRVTITCRASQGISSYLAWYQQKPEKAPKLLIYAASTLQSGVPSRFSGSGSGTEFTLTISSLQPEDFATYYCQQFNSYSLTFGGGTKLEIKR", 1.4),
    ("VG9B163 (antibody, human IgG1, lambda, V domains shown) VH: QVQLVQSGGGLVKPGASLKLSCAASGFTFSNHGMSWVRQTSDKRLEWVASITRGGDTTYYPDNVKGRFTISRENAKNTLYLQMSSLKSDDTALYYCTRGPLTVGYAMDYWGQGTTVTVSS VL: QLVLTQPPSVSAAPGQKVTISCSGNSSNIGHNYVSWYQQLPGTAPKLLIYDNNQRPSGIPDRFSGSKSDTSATLGITGLQTGDEADYYCGIWDSSLSIVVFGGGTKVTVLG", 10.6),
]

# next binder below
Form: binder = VG9B380 (antibody, human IgG1, lambda, V domains shown) VH: QVQLQESGPGLVKPSETLSLTCTVSGGSISNYYWSWIRQPAGKGLEWIGRIYPSGITSYDPSLKSRVTMSLDTSKNQFSLKLTSVTAADTAVYYCAGIMGTKGAFDIWGQGTMVTVSS VL: QSALTQPASVSGSPGQSITISCTGTSSDVGGYNYVSWYQQHPGKAPKLLIYEVSNRPSGVSNRFSGSKSGSTASLTISGLQAEDEADYYCSSYTSTSVVFGGGTKLTVLG ; Max. Activity (fold over background) = 11.6
